test-system: VEGFR-2 (KDR) kinase (Homo sapiens, UniProt P35968)
Sequence (P35968 20-1356): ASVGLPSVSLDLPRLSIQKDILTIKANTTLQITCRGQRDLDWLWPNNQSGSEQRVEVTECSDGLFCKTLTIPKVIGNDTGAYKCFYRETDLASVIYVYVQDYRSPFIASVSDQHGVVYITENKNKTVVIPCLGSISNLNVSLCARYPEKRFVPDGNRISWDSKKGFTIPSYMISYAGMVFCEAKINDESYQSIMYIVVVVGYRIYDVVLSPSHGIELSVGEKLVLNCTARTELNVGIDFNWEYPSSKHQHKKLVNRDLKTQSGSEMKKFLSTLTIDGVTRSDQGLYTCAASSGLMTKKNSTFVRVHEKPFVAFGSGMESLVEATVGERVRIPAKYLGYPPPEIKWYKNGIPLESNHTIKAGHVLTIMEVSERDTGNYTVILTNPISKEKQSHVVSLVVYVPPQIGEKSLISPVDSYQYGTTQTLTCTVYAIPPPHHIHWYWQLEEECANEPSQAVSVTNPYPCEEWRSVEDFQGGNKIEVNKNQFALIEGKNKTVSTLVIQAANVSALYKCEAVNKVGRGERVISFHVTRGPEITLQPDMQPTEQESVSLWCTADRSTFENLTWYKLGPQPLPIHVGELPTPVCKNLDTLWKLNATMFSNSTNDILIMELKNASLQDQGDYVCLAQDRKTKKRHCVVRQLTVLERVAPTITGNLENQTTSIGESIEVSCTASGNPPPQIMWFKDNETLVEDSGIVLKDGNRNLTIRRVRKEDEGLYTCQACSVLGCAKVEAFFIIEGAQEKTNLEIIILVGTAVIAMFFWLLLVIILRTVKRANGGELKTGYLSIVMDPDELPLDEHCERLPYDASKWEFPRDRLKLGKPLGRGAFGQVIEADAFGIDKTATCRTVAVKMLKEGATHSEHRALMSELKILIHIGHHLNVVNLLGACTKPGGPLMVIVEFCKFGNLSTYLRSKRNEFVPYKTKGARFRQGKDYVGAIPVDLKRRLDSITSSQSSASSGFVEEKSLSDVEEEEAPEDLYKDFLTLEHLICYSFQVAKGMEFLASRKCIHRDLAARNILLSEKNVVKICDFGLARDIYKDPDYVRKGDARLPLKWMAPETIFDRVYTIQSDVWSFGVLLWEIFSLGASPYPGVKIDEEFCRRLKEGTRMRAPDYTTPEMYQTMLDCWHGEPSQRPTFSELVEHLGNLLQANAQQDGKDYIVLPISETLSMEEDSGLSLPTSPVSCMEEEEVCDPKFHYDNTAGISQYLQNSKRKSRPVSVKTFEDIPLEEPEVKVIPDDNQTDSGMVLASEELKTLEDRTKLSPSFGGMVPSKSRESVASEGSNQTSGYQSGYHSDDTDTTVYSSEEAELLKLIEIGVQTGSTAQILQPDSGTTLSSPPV
observable: IC50 (nM)

INSERT INTO measurements (smiles_str, test_system, observable, value_reported) VALUES
  ('CNC(=O)c1ccccc1Sc1ccc2c(N=Nc3ccc(C)[nH]3)n[nH]c2c1', 'VEGFR-2 (KDR) kinase (Homo sapiens, UniProt P35968)', 'IC50', 330);
